# System: Streptococcus sp.
# METHOD SUMMARY: In vitro antibacterial evaluation: minimum inhibitory concentration (MIC), broth dilution method
# Type: cell-based
# RECORDED CONDITIONS: Streptococcus agalactiae (GC 4564); 18 hours at 35° C.
MEASURE NAME: MIC Streptococcus agalactiae (GC 4564) (µg/mL)

1. CC(c1ccccc1)C1NC(=O)CNC(=O)C(CO)NC(=O)C(C(O)C2CNC(=N)N2C2OC(CO)C(O)C(O)C2O)NC(=O)C(C(O)C2CNC(=N)N2)NC(=O)C(Cc2ccc(OC3OC(CO)C(OC4OC5COC6(CCCCC6)OC5C(O)C4O)C(O)C3O)cc2)NC1=O (stereo not shown)
1
2. Cc1ccc(Oc2cccc(C3OCC4OC(OC5C(CO)OC(Oc6ccc(CC7NC(=O)C(C(C)c8ccccc8)NC(=O)CNC(=O)C(CO)NC(=O)C(C(O)C8CNC(=N)N8C8OC(CO)C(O)C(O)C8O)NC(=O)C(C(O)C8CNC(=N)N8)NC7=O)cc6I)C(O)C5O)C(O)C(O)C4O3)c2)cc1 (stereo not shown)
16
3. COc1ccc(COCC2OC(OC3C(CO)OC(Oc4ccc(CC5NC(=O)C(C(C)c6ccccc6)NC(=O)CNC(=O)C(CO)NC(=O)C(C(O)C6CNC(=N)N6C6OC(CO)C(O)C(O)C6O)NC(=O)C(C(O)C6CNC(=N)N6)NC5=O)cc4)C(O)C3O)C(O)C(O)C2O)c2ccccc12 (stereo not shown)
0.5
4. CC(c1ccccc1)C1NC(=O)CNC(=O)C(CO)NC(=O)C(CC2CNC(=N)N2C2OC(CO)C(O)C(O)C2O)NC(=O)C(CC2CNC(=N)N2)NC(=O)C(Cc2ccc(OC3OC(CO)C(OC4OC(COCc5ccc(OCc6ccccc6)cc5)C(O)C(O)C4O)C(O)C3O)cc2)NC1=O (stereo not shown)
2

----------
# Tested on: Enterococcus sp.
# METHOD SUMMARY: In vitro antibacterial evaluation: minimum inhibitory concentration (MIC), broth dilution method
# Type: cell-based
# RECORDED CONDITIONS: broth dilution, 18 hours at 35° C.
We begin with a simple list: items and their reported MIC Enterococcus faecalis (GC 4552).
MEASURE NAME: MIC Enterococcus faecalis (GC 4552) (µg/mL)

1) CC(c1ccccc1)C1NC(=O)CNC(=O)C(CO)NC(=O)C(C(O)C2CNC(=N)N2C2OC(CO)C(O)C(O)C2O)NC(=O)C(C(O)C2CNC(=N)N2)NC(=O)C(Cc2ccc3oc(-c4cccc([N+](=O)[O-])c4)nc3c2)NC1=O (centres unmarked)
64
2) CC(c1ccccc1)C1NC(=O)CNC(=O)C(CO)NC(=O)C(C(O)C2CNC(=N)N2C2OC(CO)C(O)C(O)C2O)NC(=O)C(C(O)C2CNC(=N)N2)NC(=O)C(Cc2ccc3oc(-c4cccc(F)c4)nc3c2)NC1=O (centres unmarked)
64
3) CC(c1ccccc1)C1NC(=O)CNC(=O)C(CO)NC(=O)C(C(O)C2CNC(=N)N2C2OC(CO)C(O)C(O)C2O)NC(=O)C(C(O)C2CNC(=N)N2)NC(=O)C(Cc2ccc3oc(-c4ccc(Br)cc4)nc3c2)NC1=O (centres unmarked)
64
4) CC(c1ccccc1)C1NC(=O)CNC(=O)C(CO)NC(=O)C(C(O)C2CNC(=N)N2C2OC(CO)C(O)C(O)C2O)NC(=O)C(C(O)C2CNC(=N)N2)NC(=O)C(Cc2ccc3oc(SCc4ccccc4)nc3c2)NC1=O (centres unmarked)
16
5) CC(c1ccccc1)C1NC(=O)CNC(=O)C(CO)NC(=O)C(C(O)C2CNC(=N)N2C2OC(CO)C(O)C(O)C2O)NC(=O)C(C(O)C2CNC(=N)N2)NC(=O)C(Cc2ccc3oc(C=C(c4ccccc4)c4ccccc4)nc3c2)NC1=O (centres unmarked)
16
